- Test system: SR leukemia
- measurement-protocol: NCI tumour cell line growth inhibition, 48 h
parameter-measured: GI50

// known answers, use as guide
compound=N#Cc1ccc(NC(=O)Nc2nc3ccc(OC(F)(F)F)cc3s2)cc1 result="736 nM"
compound=C[C@@]1(O)CCC[C@H]1n1c(=O)c(C(F)F)cc2cnc(NC3CCN(S(C)(=O)=O)CC3)nc21 result="1960 nM"
compound=COC(=O)[C@H](Cc1cn(C)cn1)NC(=O)[C@@H](NC(=O)Nc1cc(C(F)(F)F)cc(C(F)(F)F)c1)C(C)(C)C result="> 10000 nM"
compound="CCCC(=O)Nc1c(I)cc(I)c(CC(CC)C(=O)O)c1I (stereo not drawn)" result="> 100000 nM"
compound=N.N.NCCCCCN.O=C([O-])CC(=O)[O-].O=C([O-])CC(=O)[O-].[Pt+4].[Pt+4] result="58600 nM"

Requested read-out: GI50. Entry: CCN(CC)c1ccc(/C=N/NC(=O)c2ccccc2Nc2ccnc(C(F)(F)F)c2)c(O)c1 72.1 nM

// next record COc1c(N2CCN(CN3C(=O)C(=O)c4ccccc43)C(C)C2)c(F)cc2c(=O)c(C(=O)O)cn(C3CC3)c12 (stereo not drawn) 32100 nM

// next record CC(C)=CCc1c(O)c(C(=O)CC(C)C)c(O)c2c(-c3ccccc3)cc(=O)oc12 12800 nM

// next record COc1ccc(C(=O)c2cc(C)c(OC)c(C)c2)c(OC)c1N(C(=O)CCl)C(=O)CCl 45 nM

// next record C=C(C)[C@@H]1CC[C@]2(CN)CC[C@]3(C)[C@H](CC[C@@H]4[C@@]5(C)CCC(N)[C@@](C)(CO)[C@@H]5CC[C@]43C)[C@@H]12 (stereo partly drawn) 1530 nM
